Values were extracted from patent US20240238425A1.

# Tested on: HiBiT-HSD17β13 fusion protein (N-terminal HiBiT-tagged HSD17β13 isoform D) in Huh7 HiBiT-HSD17β13 OE cells
# ASSAY_INFO: Whole-cell Huh7-HSD17B13 HiBiT assay (degrader potency and maximal efficacy, luminescence readout)
# Type: cell-based, human
# ASSAY_SETUP: 24 hour incubation, max. concentration 1 μM, geometric mean, * = geometric mean for all forms tested (parent and salt forms)
Counter-ions that a name gives are not always drawn.
READOUT_LABEL: Huh7_HIBIT-HSD17β13_DC50 GMean Asymptote Maximum (%)
Supply the numeric figure in %, leaving out any unit text.

Cn1c(=O)n(C2CCC(=O)NC2=O)c2ccc(CCCN3C[C@H]4CCN(c5ccc6cn(C7CCC(CNC(=O)c8cc(F)c(O)c(F)c8F)CC7)nc6c5)C[C@H]4C3)cc21.O=CO (mixture of isomers) = 77

// sample Cn1c(=O)n(C2CCC(=O)NC2=O)c2ccc(CN3CCN(c4ccc5cn([C@H]6CC[C@H](CNC(=O)c7cc(F)c(O)c(F)c7F)CC6)nc5c4)CC3)cc21 (mixture of isomers) [Example 51, trifluoroacetate salt] , its Huh7_HIBIT-HSD17β13_DC50 GMean Asymptote Maximum was 73

The recorded Huh7_HIBIT-HSD17β13_DC50 GMean Asymptote Maximum for Cn1c(=O)n(C2CCC(=O)NC2=O)c2ccc(CCCN3CCN(c4ccc5nn(C6CCC(CNC(=O)c7cc(F)c(O)c(F)c7F)CC6)cc5n4)CC3)cc21.O=CO (racemic) is 82

---

In this section, each of the compounds is paired with its reported Huh7_HIBIT-HSD17β13_DC50 GMean Asymptote Maximum.
# Test system: HiBiT-HSD17β13 fusion protein (N-terminal HiBiT-tagged HSD17β13 isoform D) in Huh7 HiBiT-HSD17β13 OE cells
# ASSAY_INFO: Whole-cell Huh7-HSD17B13 HiBiT assay (degrader potency and maximal efficacy, luminescence readout)
# Format: cell-based, human
# ASSAY_SETUP: 24 hour incubation, max. concentration 1 μM, geometric mean, * = geometric mean for all forms tested (parent and salt forms)
Structures can show the parent of a compound that is named as a salt.
Provide only the numeric value, understood in %.

Known results for compounds:
Cn1c(=O)n(C2CCC(=O)NC2=O)c2ccc(CCCN3CCc4nc(-c5ccc6cn([C@H]7CC[C@H](CNC(=O)c8cc(F)c(O)c(F)c8F)CC7)nc6c5)sc4C3)cc21 (mixture of isomers) [Example 115, trifluoroacetate salt] = 79
O=C1CCN(c2cc(C(=O)N3CCN(CC4CCN(c5ncc(-c6ccc7cn([C@H]8CC[C@H](CNC(=O)c9cc(F)c(O)c(F)c9F)CC8)nc7c6)cn5)CC4)CC3)ccc2Cl)C(=O)N1 = 80
O=C1CCN(c2cnn3cc(CCCN4CCO[C@]5(CCN(c6ccc7cn([C@H]8CC[C@H](CNC(=O)c9cc(F)c(O)c(F)c9F)CC8)nc7c6)C5)C4)ccc23)C(=O)N1 (single isomer, unassigned) [Example 30, trifluoroacetate salt] = 74
Cn1c(=O)n(C2CCC(=O)NC2=O)c2ccc(CCCN3CCc4cc(-c5ccc6cn([C@H]7CC[C@H](CNC(=O)c8cc(F)c(O)c(F)c8F)CC7)nc6c5)ccc4C3)cc21 (mixture of isomers) [Example 34, trifluoroacetate salt] = 81
Cn1c(=O)n(C2CCC(=O)NC2=O)c2ccc(CN3CCN(c4ncc(-c5ccn6cc([C@]78CC[C@](CNC(=O)c9cc(F)c(O)c(F)c9F)(CC7)CC8)nc6c5)cn4)CC3)cc21 (mixture of isomers) = 83
Cc1ccc(C(=O)N2CCC(CN3CCN(c4ccc(-c5ccc6cn([C@H]7CC[C@H](CNC(=O)c8cc(F)c(O)c(F)c8F)CC7)nc6c5)nn4)CC3)CC2)cc1N1CCC(=O)NC1=O [Example 49, trifluoroacetate salt] = 82
Cc1ccc(C(=O)N2CCC(CCCCN3CCN(c4ccc5cn(C6CCC(CNC(=O)c7cc(F)c(O)c(F)c7F)CC6)nc5c4)CC3)CC2)cc1N1CCC(=O)NC1=O (stereo not drawn) = 78
Cn1c(=O)n(C2CCC(=O)NC2=O)c2ccc(CCN3CCN(c4ncc(-c5ccc6cn([C@H]7CC[C@H](CNC(=O)c8cc(F)c(O)c(F)c8F)CC7)nc6c5)cn4)CC3)cc21 (mixture of isomers) [Example 43, trifluoroacetate salt] = 83

The recorded Huh7_HIBIT-HSD17β13_DC50 GMean Asymptote Maximum for entry O=C1CCN(c2cnn3cc(CCCN4CCN(c5ncc(-c6ccc7cn([C@H]8CC[C@H](CNC(=O)c9cc(F)c(O)c(F)c9F)CC8)nc7c6)cn5)CC4)ccc23)C(=O)N1 [Example 53, trifluoroacetate salt] equals 77

Form field Huh7_HIBIT-HSD17β13_DC50 GMean Asymptote Maximum, entry O=C1CCN(c2cnn3cc(CCN4CCN(c5ncc(-c6ccc7cn([C@H]8CC[C@H](CNC(=O)c9cc(F)c(O)c(F)c9F)CC8)nc7c6)cn5)CC4)ccc23)C(=O)N1 [Example 54, trifluoroacetate salt] : 83
